Give GI50 for every item shown.
- Tested on: NCI-H460
- Measurement Notes: NCI tumour cell line growth inhibition, 48 h
Activity calls are given as the source filed them. No stated cut-off is given here; in the data, active = GI50 up to about 1.1 µM and inactive = higher.

Compound	Measured
CC(C(=O)N1C(=O)N(C(=O)C(C)C(O)c2ccccc2)C2CCCCC21)C(O)c1ccccc1 (stereo not given)	49.1 µM (inactive)
COC1=CC(=O)C=C(OC)C1=O [2,6-DIMETHOXYQUINONE]	23.7 µM (inactive)
COc1cccc(N2C(=O)C3c4[nH]c5ccc(C)cc5c4C4CCC(C)CC4C3C2=O)c1 (stereo not given)	> 100 µM (inactive)
CC(=O)Nc1ccc(-c2nnc(SCC(=O)Nc3ccc(C)cc3)o2)cc1	23.2 µM (inactive)
O=C1CSC(c2ccc([N+](=O)[O-])cc2)N1c1ccc(-c2ccc(-n3c(-c4ccccc4)nc4ccccc4c3=O)cc2)cc1 (stereo not given)	38.4 µM (inactive)
Cc1cc(=O)oc2c(C)c3oc(CBr)c(Br)c3cc12	18.9 µM (inactive)
O=C1c2ccccc2-c2cc([N+](=O)[O-])c([N+](=O)[O-])cc21	1.51 µM (inactive)
Cc1cccc(Nc2cn(CCOc3ccccc3)c(=O)[nH]c2=O)c1	32.7 µM (inactive)
C[N+](C)(C)CCOP(=O)(O)OP(=O)([O-])OCC1CCC(n2ccc(N)nc2=O)O1 (stereo not given)	> 100 µM (inactive)

Then there is this compound:
Task: Answer with reported GI50 of CCOC(=O)C1=C(C)N(C)C(=S)NC1c1cccc(O)c1 (stereo not given)
Output: 38.2 µM (inactive)

The values you see were collected from ChEMBL document CHEMBL1201862.
